# assay system: T1, human CD36 (on HEK 293 or SCC25 cells) (human, UniProt P16671 2-472)
# T1 construct: Overexpressed transiently or stably on HEK 293 cells, or stably on SCC25 cells; also called huCD36
# T1 sequence (P16671 2-472 limits assumed): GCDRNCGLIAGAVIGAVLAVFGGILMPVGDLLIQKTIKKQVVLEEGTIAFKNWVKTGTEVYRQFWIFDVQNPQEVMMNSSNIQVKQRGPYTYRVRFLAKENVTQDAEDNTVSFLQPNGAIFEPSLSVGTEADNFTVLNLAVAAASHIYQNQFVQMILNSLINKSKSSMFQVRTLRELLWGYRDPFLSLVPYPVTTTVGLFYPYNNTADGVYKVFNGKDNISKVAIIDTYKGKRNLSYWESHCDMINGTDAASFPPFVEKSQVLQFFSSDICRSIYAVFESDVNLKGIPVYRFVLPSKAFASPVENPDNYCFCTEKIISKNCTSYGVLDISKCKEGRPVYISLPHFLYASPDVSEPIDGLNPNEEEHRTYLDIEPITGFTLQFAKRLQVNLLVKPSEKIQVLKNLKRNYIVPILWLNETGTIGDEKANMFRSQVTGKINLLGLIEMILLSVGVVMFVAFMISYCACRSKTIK
# protocol text: FACS, HEK 293 cells transiently overexpressing CD36;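 also: antibody binding to transfected cells detected by flow cytometry with a fluorescent anti-human secondary antibody, EC50 from a four-parameter sigmoidal fit of mean fluorescence intensity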
property: EC50 (nM)
Answer in nM, number only, no unit symbol.

{"binder": "24G04 (antibody, human IgG1, V domains shown, Chimeric: mouse variable regions on human IgG1 LALA (L234A/L235A)) VH: QVQLQQSGAELVKPGASVKLSCKASGYTFTSYWMHWVKQRPGQGLEWIGEIDPSDSHANYNQKFKGKATLTVDKSSSTAYMQLSSLTSEDSAVYYCAPIYYGLDNWGQGTTLTVSS VL: DIVMTQSQKFLSTSVGDRVSVTCKASQNVGTNVAWYQQKPGQSPKVLIYSASYRYSGVPDRFTGSGSGTDFTLTVSNVQSEDLAEYFCQQYNNYPLTFGAGTKLELK", "units text": "nM", "EC50": 0.26}

(Q) Consider the binder 25G04 (antibody, human IgG1, V domains shown, Chimeric: mouse variable regions on human IgG1 LALA (L234A/L235A)) VH: EVQLQQSGAELVKPGASVKLSCKASGYTFTSYWMHWVKQRPGQGLEWIGEIDPSDSHANYNQKFKGKATLTVDKSSSTAYMQLSSLTSEDSAVYYCAPIYYGLDNWGQGTTLTVSS VL: DIVLTQSQKFMSTSVGDRVSVTCKASQNVGTNVAWYQQKPGQSPKALIYSASYRYSGVPDRFTGSGSGTDFTLTISNVQPEDLAEYFCQQYNSYPLTFGGGTKLEIK and give its measured EC50.
(A) 0.74

Hello, the source for this data is patent US20250206836A1, in case you need it.
